- measurement_target: Anthrax Lethal Factor (ALF) (Bacillus anthracis)
- Sequence (P15917 34-809 limits assumed): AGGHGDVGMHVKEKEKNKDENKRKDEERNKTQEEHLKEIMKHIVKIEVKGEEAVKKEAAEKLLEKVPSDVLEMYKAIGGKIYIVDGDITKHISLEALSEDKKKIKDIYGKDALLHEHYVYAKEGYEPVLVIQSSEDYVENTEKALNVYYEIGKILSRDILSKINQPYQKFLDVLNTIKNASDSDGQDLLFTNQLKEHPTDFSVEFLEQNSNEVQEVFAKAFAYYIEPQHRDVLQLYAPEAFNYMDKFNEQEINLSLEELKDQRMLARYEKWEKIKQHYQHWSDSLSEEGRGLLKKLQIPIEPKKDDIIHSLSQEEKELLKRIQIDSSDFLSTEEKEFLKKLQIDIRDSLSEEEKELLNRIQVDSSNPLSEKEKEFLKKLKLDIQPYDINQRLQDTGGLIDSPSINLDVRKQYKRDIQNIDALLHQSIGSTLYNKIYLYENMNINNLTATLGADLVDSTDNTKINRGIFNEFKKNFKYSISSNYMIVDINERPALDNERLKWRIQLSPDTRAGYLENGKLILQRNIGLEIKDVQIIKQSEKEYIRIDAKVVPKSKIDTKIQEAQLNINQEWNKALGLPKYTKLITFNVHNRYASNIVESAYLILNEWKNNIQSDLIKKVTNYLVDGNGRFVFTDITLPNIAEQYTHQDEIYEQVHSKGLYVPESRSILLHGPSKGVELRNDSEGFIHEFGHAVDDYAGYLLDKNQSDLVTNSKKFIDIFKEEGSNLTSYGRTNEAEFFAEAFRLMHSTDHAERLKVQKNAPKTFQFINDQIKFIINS
- method: biochemical
- Assay type: biochemical
property_name: Activity by plate, % @ 100
Numeric answer plus unit only.

// below: answered compounds
1. O=c1c(Cc2ccccc2)nc(-c2ccc(O)cc2)cn1O 7% @ 100
2. O=c1c(Cc2ccc(-c3ccccc3)cc2)nc(-c2ccc3ccccc3c2)cn1O 54% @ 100
3. Cc1cc(-c2cn(O)c(=O)c(Cc3ccc(-c4ccccc4)cc3)n2)ccc1Cl 47% @ 100
4. CC(=O)Nc1ccc(-c2cn(O)c(=O)c(Cc3ccccc3)n2)cc1 19% @ 100

Attention now turns to another entry.
Determine its reported Activity by plate, % @ 100: `O=c1c(Cc2ccccc2)nc(-c2ccc3c(c2)OCO3)cn1O`
39% @ 100
